Please go through the items and note down their pIC50.
assay: Inhibition of NS5A in HCV genotype 1b infected in human HuH7.5/Con1/SG-Neo(I)-hRluc2aUb cells assessed as inhibition of replicon levels incubated for 72 hrs by luciferase reporter gene assay
// pIC50 here means minus log10 of the molar concentration (mol/L)

Exercise: What value of measured pIC50 is listed for COC(=O)N[C@H](C(=O)N1CCC[C@H]1c1ncc(-c2ccc(N3CCN(c4ccc(-c5cnc([C@@H]6CCCN6C(=O)[C@@H](NC(=O)OC)C(C)C)[nH]5)cc4)CC3)cc2)[nH]1)C(C)C ?
Key: 9.58

Exercise: Which pIC50 value belongs to COC(=O)N[C@H](C(=O)N1CCC[C@H]1c1ncc(-c2ccc3c(c2)CCc2cc(-c4cnc([C@@H]5CCCN5C(=O)[C@@H](NC(=O)OC)C(C)C)[nH]4)ccc2-3)[nH]1)C(C)C ?
Key: 10.82

Exercise: Fill blank: measured pIC50 of the molecule COC(=O)N[C@H](C(=O)N1CCC[C@H]1c1nc(-c2ccc(-c3ccc(-c4c[nH]c([C@@H]5CCCN5C(=O)[C@@H](NC(=O)OC)C(C)C)n4)cc3)cc2)c[nH]1)C(C)C is ____.
Key: 10.64

Exercise: Which pIC50 is reported for this molecule? COC(=O)N[C@H](C(=O)N1CCC[C@H]1c1nc(Cl)c(-c2ccc3c(c2)OCCc2cc(-c4[nH]c([C@@H]5CCCN5C(=O)[C@@H](NC(=O)OC)C(C)C)nc4Cl)sc2-3)[nH]1)C(C)C
Key: 11.10

Exercise: Entry under review: COC(=O)N[C@H](C(=O)N1CCC[C@H]1c1ncc(-c2ccc3c(c2)CCc2cc(-c4cnc([C@@H]5CCCN5C(=O)[C@@H](NC(=O)OC)C(C)C)[nH]4)sc2-3)[nH]1)C(C)C . Reported pIC50?
Key: 10.68

Exercise: I'd like to know its pIC50. The molecule in question is COC(=O)N[C@H](C(=O)N1CCC[C@H]1c1nc(Cl)c(-c2ccc3c(c2)OCC(C)(C)COc2cc(-c4[nH]c([C@@H]5CCCN5C(=O)[C@@H](NC(=O)OC)C(C)C)nc4Cl)ccc2-3)[nH]1)C(C)C
Key: 11.40

Exercise: Entry COC(=O)N[C@H](C(=O)N1CCC[C@H]1c1ncc(-c2ccc3c(c2)CCCc2cc(-c4cnc([C@@H]5CCCN5C(=O)[C@@H](NC(=O)OC)C(C)C)[nH]4)sc2-3)[nH]1)C(C)C : reported pIC50 = ?
Key: 10.68

Exercise: Give its pIC50 value. Item: COC(=O)N[C@H](C(=O)N1CCC[C@H]1c1ncc(-c2ccc3c(c2)OCC2(CC2)COc2cc(-c4cnc([C@@H]5CCCN5C(=O)[C@@H](NC(=O)OC)C(C)C)[nH]4)ccc2-3)[nH]1)C(C)C
Key: 9.87

Exercise: Which pIC50 value belongs to COC(=O)N[C@H](C(=O)N1CCC[C@H]1c1ncc(-c2ccc3c(c2)CC2(C3)Cc3ccc(-c4cnc([C@@H]5CCCN5C(=O)[C@@H](NC(=O)OC)C(C)C)[nH]4)cc3C2)[nH]1)C(C)C ?
Key: 10.10

Origin of the recorded values: BindingDB's records for doi:10.1021/acs.jmedchem.9b01562
